Values were extracted from patent US20210115124A1.

Molecular target: T1, human VEGF (hVEGF) (human, UniProt P15692 181-395)
T1 construct: also called VEGF-A
T1 sequence: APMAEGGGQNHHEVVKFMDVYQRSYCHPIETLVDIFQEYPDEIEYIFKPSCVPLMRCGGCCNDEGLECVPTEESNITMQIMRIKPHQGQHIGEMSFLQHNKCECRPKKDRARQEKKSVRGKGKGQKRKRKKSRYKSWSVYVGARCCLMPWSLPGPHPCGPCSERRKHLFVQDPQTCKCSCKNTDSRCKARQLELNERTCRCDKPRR
Test: SPR single-cycle
ENDPOINT LABEL: Fold difference (relative to G6.31) (fold)
Numbers only; they are read as fold.

| BINDER | UNIT ANNOTATION | Fold difference (relative to G6.31) |
| --- | --- | --- |
| G6.31 HC-Q81S (Fab, name in Kabat numbering, V domains shown, Fab) VH: EVQLVESGGGLVQPGGSLRLSCAASGFTISDYWIHWVRQAPGKGLEWVAGITPAGGYTYYADSVKGRFTISADTSKNTAYLSMNSLRAEDTAVYYCARFVFFLPYAMDYWGQGTLVTVSS VL: DIQMTQSPSSLSASVGDRVTITCRASQDVSTAVAWYQQKPGKAPKLLIYSASFLYSGVPSRFSGSGSGTDFTLTISSLQPEDFATYYCQQGYGNPFTFGQGTKVEIK | fold | 3.4 |
| G6.31 HC-N82aR (Fab, name in Kabat numbering, V domains shown, Fab) VH: EVQLVESGGGLVQPGGSLRLSCAASGFTISDYWIHWVRQAPGKGLEWVAGITPAGGYTYYADSVKGRFTISADTSKNTAYLQMRSLRAEDTAVYYCARFVFFLPYAMDYWGQGTLVTVSS VL: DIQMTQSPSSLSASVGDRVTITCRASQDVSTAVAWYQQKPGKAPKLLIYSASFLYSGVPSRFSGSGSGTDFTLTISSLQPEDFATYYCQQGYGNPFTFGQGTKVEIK | fold | 6.7 |
| G6.31 HC-T57E (Fab, name in Kabat numbering, V domains shown, Fab) VH: EVQLVESGGGLVQPGGSLRLSCAASGFTISDYWIHWVRQAPGKGLEWVAGITPAGGYEYYADSVKGRFTISADTSKNTAYLQMNSLRAEDTAVYYCARFVFFLPYAMDYWGQGTLVTVSS VL: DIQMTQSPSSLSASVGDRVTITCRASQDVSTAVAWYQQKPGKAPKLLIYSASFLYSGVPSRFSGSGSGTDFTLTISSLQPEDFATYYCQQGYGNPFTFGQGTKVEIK | fold | 7.7 |

Fold difference (relative to G6.31) measured on G6.31 HC-S70H (Fab, name in Kabat numbering, V domains shown, Fab) VH: EVQLVESGGGLVQPGGSLRLSCAASGFTISDYWIHWVRQAPGKGLEWVAGITPAGGYTYYADSVKGRFTIHADTSKNTAYLQMNSLRAEDTAVYYCARFVFFLPYAMDYWGQGTLVTVSS VL: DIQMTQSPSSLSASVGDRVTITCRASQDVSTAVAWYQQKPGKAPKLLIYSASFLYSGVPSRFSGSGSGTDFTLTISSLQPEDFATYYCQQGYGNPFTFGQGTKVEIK = 1.5

Fold difference (relative to G6.31) measured on G6.31 LC-L73G (Fab, V domains shown, Fab) VH: EVQLVESGGGLVQPGGSLRLSCAASGFTISDYWIHWVRQAPGKGLEWVAGITPAGGYTYYADSVKGRFTISADTSKNTAYLQMNSLRAEDTAVYYCARFVFFLPYAMDYWGQGTLVTVSS VL: DIQMTQSPSSLSASVGDRVTITCRASQDVSTAVAWYQQKPGKAPKLLIYSASFLYSGVPSRFSGSGSGTDFTGTISSLQPEDFATYYCQQGYGNPFTFGQGTKVEIK = 1.4

Fold difference (relative to G6.31) measured on G6.31 LC-Q89T (Fab, V domains shown, Fab) VH: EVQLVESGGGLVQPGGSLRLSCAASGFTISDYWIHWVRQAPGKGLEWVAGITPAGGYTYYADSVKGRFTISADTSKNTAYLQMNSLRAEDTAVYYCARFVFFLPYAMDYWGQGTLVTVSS VL: DIQMTQSPSSLSASVGDRVTITCRASQDVSTAVAWYQQKPGKAPKLLIYSASFLYSGVPSRFSGSGSGTDFTLTISSLQPEDFATYYCTQGYGNPFTFGQGTKVEIK = 3.7
